- targetOfAssay: T1, CatE FRET peptide X-KPAAFFRL-Z (not fully specified)
- T1 chain: KPAAFFRL
observable: Relative proteolytic activity

>  <protein>
recombinant ADAM17 (protein) RADPDPMKNTCKLLVVADHRFYRYMGRGEESTTTNYLIELIDRVDDIYRNTSWDNAGFKGYGIQIEQIRILKSPQEVKPGEKHYNMAKSYPNEEKDAWDVKMLLEQFSFDIAEEASKVCLAHLFTYQDFDMGTLGLAYVGSPRANSHGGVCPKAYYSPVGKKNIYLNSGLTSTKNYGKTILTKEADLVTTHELGHNFGAEHDPDGLAECAPNEDQGGKYVMYPIAVSGDHENNKMFSNCSKQSIYKTIESKAQECFQERSNKV

>  <observable>
Relative proteolytic activity

>  <reportedMeasurement>
(-)

$$$$
